- Tested on: MOLT-4 leukemia
- Experimental Details: NCI tumour cell line growth inhibition, 48 h
Below, each of the compounds is paired with its reported GI50 value.

Example entries and their recorded answers appear below.
C=C1CCC2C3(C)COC(c4ccc(NC(C)=O)cc4)OC3CCC2(C)C1C/C=C1/C(=O)OCC1O (stereo not drawn) :: 2.32 µM
O=C(NCc1cccnc1)/C(=C\c1ccc(Br)cc1)S(=O)(=O)c1ccccc1 :: 0.419 µM
COC(=O)C[CH](C(=O)OC)[Ge]([CH3])([CH3])[S]c1ccccc1 (stereo not drawn) :: 3.37 µM
Cn1c2ccccc2c(=Nc2ccccc2)c2c3ccccc3[nH]c21 :: 0.32 µM
CCOC(=O)c1sc(-c2ccc(OS(=O)(=O)c3cccs3)c(C=O)c2)nc1C :: 1.47 µM

Requested read-out: GI50. Entry: "COc1ccc(-c2ccc(/C=C/C(=O)NO)cc2)cc1" 0.375 µM

So what's the measured GI50 for this one? "COc1cc(-c2cc(-c3ccc(N(C)C)cc3)nc(N3CCOCC3)c2C#N)cc(OC)c1OC" 1.38 µM

For the compound NC(=O)CCC(NC(=O)OCc1ccccc1)C(=O)OCC(=O)c1ccccc1 (stereo not drawn) , what GI50 is on record? > 100 µM

Entry "O=C1c2ccccc2C(=O)c2c1ccc(C(Br)Br)c2[N+](=O)[O-]" : reported GI50 = ? 1.23 µM

###

- Test system: HCT-116 colon
- Experimental Details: NCI tumour cell line growth inhibition, 48 h
Assay Endpoint: TGI

Consider the reported TGI for these molecules:
CN(CCc1ccc(Cl)c(Cl)c1)[C@H]1CCCC[C@H]1N1CCCC1 :: > 100 µM
COC(=O)C1=C(OC)c2cc3c(cc2C(c2cc(OC)c(OC)c(OC)c2)C1C(=O)OC)OCO3 (centres undefined) :: > 100 µM
CC1(C)CCC[C@]23C(=O)O[C@](O)(C(=O)C4=C[C@@](C)(/C=C/CCCc5ccc6ccc7cccc8ccc5c6c78)CC[C@@]42O)[C@@H]13 :: 0.299 µM
O=C(c1ccccc1Nc1ccnc(C(F)(F)F)c1)N1CCN(c2cccc(Cl)c2)CC1 :: 29 µM
Cc1cc(NS(=O)(=O)c2ccc(Nc3c4ccccc4nc4c(C(=O)Nc5ccc(S(=O)(=O)N=C(N)N)cc5)cccc34)cc2)no1 :: > 100 µM

Please look up its TGI: "COc1ccc(C2(c3ccc(OC)cc3)OC(=O)c3cccc4cccc2c34)cc1" > 100 µM

Quick check: TGI of "Cn1c(=O)c2c(-c3ccccc3)onc2n(C)c1=O" ? > 100 µM

Endpoint output: TGI of "O=C(C1=C(C(=O)c2ccccc2)SC2(S1)C(C(=O)c1ccccc1)=C(C(=O)c1ccccc1)Sc1c2ssc1=O)c1ccccc1" . Value? > 100 µM

Need TGI of "COc1ccc(OC)c(-c2nc3sccn3c2/C=C2/C(=O)Nc3ccc(Cl)cc32)c1" , thanks. > 100 µM

I am curious: what TGI value has been reported for "CCC1(CC)C(=O)CC[C@@]2(C)C1=CC[C@H]1[C@@H]3CC[C@H](O)[C@@]3(C)CC[C@@H]12" ? 63.8 µM

###

Consider the following compounds and their measured GI50 readings.
- Test system: TK-10 renal
- Experimental Details: NCI tumour cell line growth inhibition, 48 h

Solved cases (3 shown):
COc1ccc(/C=C/c2c(C(=O)/C=C/c3ccc(Cl)cc3)c(C)nc3ccccc23)cc1 :: 2870 nM
C=C(C=O)C1CC(=O)C(C(=O)OC)[C@@H]2O[C@@](C)(CC2=O)C[C@@H]2OC(=O)[C@]3(O[C@@H]23)[C@@H](C(=O)OC)C1 (some centres undefined) :: 24700 nM
CCN1CCN(c2nc(NNC(=O)Cc3ccccc3)nc(N3CCN(C(c4ccccc4)c4ccccc4)CC3)n2)CC1 :: 1970 nM

Lookup: GI50 / TK-10 renal / "Cc1ccc2c(c1)C(=O)c1c-2n(CCCN)c(=O)c2cc([N+](=O)[O-])ccc12" 567 nM
